- assayExplanation: Pharmacokinetics in SD rats, intravenous injection or intragastric administration
- Type: in vivo
- appliedConditions: male, Sprague-Dawley, rat, plasma, 3 mg/kg, oral (mg/kg), dose not given, read-out: drug concentration in blood, Cmax
molecules and their reported Cmax
propertyMeasured: Cmax (ng/mL)

molecule="COc1ccc2c(c1OCc1ccccc1)C[C@@H](C(=O)O)N(C(=O)C(c1ccccc1)c1ccccc1)C2 [olodanrigan, reference compound]" recordedmeasurement=470
molecule=N#Cc1ccc2nc(-c3cnc(N4CCCOc5ccc(F)cc54)cc3C(=O)O)oc2c1 recordedmeasurement=5250

====

compounds and their reported half-life
- assayExplanation: Pharmacokinetics in SD rats, intravenous injection or intragastric administration
- Format: in vivo
- appliedConditions: male, Sprague-Dawley, rat, plasma, 3 mg/kg, oral (mg/kg), dose not given, read-out: half-life T1/2 (converted)
propertyMeasured: half-life (min)

compound=N#Cc1ccc2nc(-c3cnc(N4CCCOc5ccc(F)cc54)cc3C(=O)O)oc2c1 propertymeasured=half-life recordedmeasurement=222
compound="COc1ccc2c(c1OCc1ccccc1)C[C@@H](C(=O)O)N(C(=O)C(c1ccccc1)c1ccccc1)C2 [olodanrigan, reference compound]" propertymeasured=half-life recordedmeasurement=90
